Every entry's value here was drawn from patent US20250197408A1.

- assay.procedure: Solubility in 7 aqueous pH buffers and bio-relevant fluids at 37° C. (HPLC of supernatant; residual solids by XRPD)
- Format: physicochemical
- assay.context: ES6, FaSSIF-v1, pH 6.5, 37° C., 24 h
- Experimental: 20 mg of the free base Form A of Compound I was weighed into a 20 mL glass vial. Amounts of the salts equivalent to 20 mg anhydrous free base were weighed into a glass vial. 10 mL of solubility medium was added. The resulting suspensions/solutions were stirred at 37° C. at 400 rpm and sampled at 2 hours and at 24 hours, respectively. […] Supernatants were analyzed by HPLC and pH meter for solubility and pH value, respectively. […] Residual solids after the solubility test were analyzed by XRPD.
value.type: pH of supernatant, solubility for 24 h (pH)

- molecule: "C=CC(=O)NCC(=O)N1CCN(Cc2cc3c(N4CCOCC4)nc(-c4cnc(NC(=O)OC)cc4C(F)(F)F)nn3c2)CC1.O=P(O)(O)O [Form A* of Compound I phosphate salt]"
  endpoint.value: "(6.1)"
- molecule: "C=CC(=O)NCC(=O)N1CCN(Cc2cc3c(N4CCOCC4)nc(-c4cnc(NC(=O)OC)cc4C(F)(F)F)nn3c2)CC1.O=C(O)/C=C\\C(=O)O [Form B* of Compound I maleate salt]"
  endpoint.value: "(6.1)"
- molecule: "C=CC(=O)NCC(=O)N1CCN(Cc2cc3c(N4CCOCC4)nc(-c4cnc(NC(=O)OC)cc4C(F)(F)F)nn3c2)CC1.O=S(=O)(O)c1ccccc1"
  endpoint.value: "(6.2)"
- molecule: "C=CC(=O)NCC(=O)N1CCN(Cc2cc3c(N4CCOCC4)nc(-c4cnc(NC(=O)OC)cc4C(F)(F)F)nn3c2)CC1 [Form A of Compound I]"
  endpoint.value: "(6.5)"
